# assay_protocol: total protein half-life in vivo (active degradation + dilution); higher = more stable protein
# condition_context: wild type E. coli NCM3722; growth: C-lim chemostat; doubling time 6 h
reported_metric: total protein half-life in vivo (h)
Answers are plain numbers, in h.

Solved entries:
record_sequence: MRKSVIAIIIIVLVVLYMSVFVVKEGERGITLRFGKVLRDDDNKPLVYEPGLHFKIPFIETVKMLDARIQTMDNQADRFVTKEKKDLIVDSYIKWRISDFSRYYLATGGGDISQAEVLLKRKFSDRLRSEIGRLDVKDIVTDSRGRLTLEVRDALNSGSAGTEDEVTTPAADNAIAEAAERVTAETKGKVPVINPNSMAALGIEVVDVRIKQINLPTEVSEAIYNRMRAEREAVARRHRSQGQEEAEKLRATADYEVTRTLAEAERQGRIMRGEGDAEAAKLFADAFSKDPDFYAFIRSLRAYENSFSGNQDVMVMSPDSDFFRYMKTPTSATR [P0ABC3]
reported_metric: total protein half-life in vivo
observed_result: 6.06
--
record_sequence: MWKRLLIVSAVSAAMSSMALAAPLTVGFSQVGSESGWRAAETNVAKSEAEKRGITLKIADGQQKQENQIKAVRSFVAQGVDAIFIAPVVATGWEPVLKEAKDAEIPVFLLDRSIDVKDKSLYMTTVTADNILEGKLIGDWLVKEVNGKPCNVVELQGTVGASVAIDRKKGFAEAIKNAPNIKIIRSQSGDFTRSKGKEVMESFIKAENNGKNICMVYAHNDDMVIGAIQAIKEAGLKPGKDILTGSIDGVPDIYKAMMDGEANASVELTPNMAGPAFDALEKYKKDGTMPEKLTLTKSTLYLPDTAKEELEKKKNMGY
reported_metric: total protein half-life in vivo
observed_result: 6.11

Kindly review the next sequence as well.
So, MTVKQTVEITNKLGMHARPAMKLFELMQGFDAEVLLRNDEGTEAEANSVIALLMLDSAKGRQIEVEATGPQEEEALAAVIALFNSGFDED [P0A9N0] ? Its total protein half-life in vivo was 3.27
